The molecules below have reported IC50 for hJAK2 (Homo sapiens (Human), UniProt O60674).
Observation type: IC50 (nM)

{"columns": ["Smiles code", "IC50, nM"],
 "data": [
  ["N#Cc1cc(-c2ncnc(Nc3ccc(N4CCN(C5COC5)CC4)cc3)n2)ccc1O[C@H]1CCN(C2COC2)C[C@H]1F", 602],
  ["C[C@@H](O)C(=O)N1CC[C@H](Oc2ccc(-c3ncnc(Nc4ccc(N5CCN(C6COC6)CC5)cc4)n3)cc2C#N)C[C@@H]1C", 491],
  ["C[C@H]1C[C@H](Oc2ccc(-c3ncnc(Nc4ccc(N5CCN(C6COC6)CC5)cc4)n3)cc2C#N)CCN1C(=O)CO", 488]
]}

P. N#Cc1cc(-c2ncnc(Nc3ccc(C(N)=O)cc3)n2)ccc1O[C@@H]1CCN(C(=O)CO)C1
Q. C[C@H]1CN(C2COC2)CCN1c1ccc(Nc2ncnc(-c3ccc(O[C@H]4CCN(C(=O)c5ccn[nH]5)C[C@H]4F)c(C#N)c3)n2)cc1
R. CS(=O)(=O)N1CC(Oc2ccc(-c3ncnc(Nc4ccc(N5CCN(C6COC6)CC5)cc4)n3)cc2C#N)C1
[Q] Given 3 molecules, produce a descending ranking by IC50. Give the labels in the order requested.
[A] P, Q, R

====

- System name: TBK1 (Homo sapiens (Human))
- Sequence (Q9UHD2 whole entry): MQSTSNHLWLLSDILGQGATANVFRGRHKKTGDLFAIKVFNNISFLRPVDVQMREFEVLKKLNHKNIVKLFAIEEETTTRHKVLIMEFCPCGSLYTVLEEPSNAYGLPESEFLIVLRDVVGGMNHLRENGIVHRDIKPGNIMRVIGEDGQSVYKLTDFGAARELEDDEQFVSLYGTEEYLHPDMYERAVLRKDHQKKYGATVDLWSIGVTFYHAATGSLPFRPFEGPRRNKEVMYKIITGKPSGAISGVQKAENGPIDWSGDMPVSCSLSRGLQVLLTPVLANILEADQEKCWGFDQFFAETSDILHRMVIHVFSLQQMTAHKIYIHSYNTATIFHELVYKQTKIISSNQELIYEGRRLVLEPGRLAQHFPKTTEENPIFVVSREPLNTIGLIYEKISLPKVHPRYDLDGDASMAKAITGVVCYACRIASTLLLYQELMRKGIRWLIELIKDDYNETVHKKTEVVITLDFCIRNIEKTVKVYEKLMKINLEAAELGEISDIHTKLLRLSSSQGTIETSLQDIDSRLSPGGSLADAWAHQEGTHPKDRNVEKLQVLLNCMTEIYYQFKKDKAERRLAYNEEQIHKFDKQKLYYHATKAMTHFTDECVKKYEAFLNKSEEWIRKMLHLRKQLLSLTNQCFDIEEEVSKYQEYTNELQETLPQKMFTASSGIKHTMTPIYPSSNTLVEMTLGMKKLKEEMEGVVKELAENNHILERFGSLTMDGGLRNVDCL
- Test method notes: TBK1 TR-FRET enzymatic assay;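 also: phosphorylation of a biotinylated Ser/Thr peptide by purified full-length recombinant TBK1, read by TR-FRET after 240 min at 25 °C, IC50 is the geometric mean of at least four runs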
Observation type: IC50 (nM)

{"columns": ["Smiles code", "System name", "Output unit", "IC50"],
 "data": [
  ["CC(=O)N1CC[C@H](Oc2ccc(-c3ncnc(Nc4ccc(C5CCN(C)CC5)cc4)n3)cc2C#N)C(F)(F)C1", "TBK1 (Homo sapiens (Human))", "nM", 2],
  ["N#Cc1cc(-c2ncnc(Nc3ccc(N4CCN(C5COC5)CC4)cc3)n2)ccc1O[C@H]1CCN(C(=O)[C@@H]2CCCCN2)C[C@H]1F", "TBK1 (Homo sapiens (Human))", "nM", 101],
  ["Cc1ncsc1Nc1ncnc(-c2ccc(O[C@H]3CCN(C(=O)CO)C[C@H]3F)c(C#N)c2)n1", "TBK1 (Homo sapiens (Human))", "nM", 5]
]}

A. N#Cc1cc(-c2ncnc(Nc3ccc(N4CCN(C5COC5)CC4)cc3)n2)cc(F)c1O[C@H]1CCN(C(=O)CO)C[C@H]1F
B. N#Cc1cc(-c2ncnc(Nc3ccc(N4CCN(C5COC5)CC4)cc3)n2)ccc1O[C@H]1CCN(C(=O)c2cnn[nH]2)CC1(F)F
C. CC1(C)CN(C(=O)[C@@H]2CCC(=O)N2)C[C@H](F)[C@@H]1Oc1ccc(-c2ncnc(Nc3ccc(N4CCN(C5COC5)CC4)cc3)n2)cc1C#N
[Q] Sort entries by IC50 from minimum to maximum value. Give the labels in the order requested.
[A] B, A, C

====

- System name: IKKε (Homo sapiens (Human))
- Sequence (Q14164 whole entry): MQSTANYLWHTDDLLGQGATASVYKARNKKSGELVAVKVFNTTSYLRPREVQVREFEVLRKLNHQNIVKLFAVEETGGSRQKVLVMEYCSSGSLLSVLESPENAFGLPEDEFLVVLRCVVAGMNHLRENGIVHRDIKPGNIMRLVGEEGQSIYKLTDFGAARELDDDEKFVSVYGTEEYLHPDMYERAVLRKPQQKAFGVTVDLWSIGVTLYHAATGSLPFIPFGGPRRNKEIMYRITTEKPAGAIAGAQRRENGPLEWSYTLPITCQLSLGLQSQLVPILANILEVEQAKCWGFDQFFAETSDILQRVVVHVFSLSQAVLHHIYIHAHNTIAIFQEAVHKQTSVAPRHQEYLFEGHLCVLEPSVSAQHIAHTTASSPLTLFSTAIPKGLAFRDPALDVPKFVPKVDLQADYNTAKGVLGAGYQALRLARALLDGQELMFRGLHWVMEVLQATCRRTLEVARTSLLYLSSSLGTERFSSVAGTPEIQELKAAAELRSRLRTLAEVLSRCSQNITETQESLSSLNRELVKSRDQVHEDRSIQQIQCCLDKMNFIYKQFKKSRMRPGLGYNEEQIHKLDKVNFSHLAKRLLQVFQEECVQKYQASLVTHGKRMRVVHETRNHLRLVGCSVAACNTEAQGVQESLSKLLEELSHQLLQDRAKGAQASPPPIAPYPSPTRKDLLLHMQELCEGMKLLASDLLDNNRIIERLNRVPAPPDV
- Test method notes: IKKε TR-FRET enzymatic assay
- Format: biochemical
- Condition details: read-out: IKKe IC50
Observation type: IC50 (nM)

{"columns": ["Smiles code", "IC50 / nM"],
 "data": [
  ["COc1ccc(Nc2ncnc(-c3ccc(OC4CCOCC4)c(C#N)c3)n2)cc1", 21]
]}

1. CC(C)(O)c1ccc(Nc2ncnc(-c3ccc(O[C@H]4CCN(C(=O)CO)C[C@H]4F)c(C#N)c3)n2)cn1
2. N#Cc1cc(-c2ncnc(Nc3ccc(N4CCN(C5COC5)CC4)cc3)n2)ccc1O[C@@H]1CCN(C(=O)C2(O)CC2)C1
3. N#Cc1cc(-c2ncnc(Nc3ccc(N4CCN(C5COC5)CC4)cc3)n2)ccc1O[C@H]1CCN(C(=O)C2(O)CNC2)C[C@H]1F
4. N#Cc1cc(-c2ncnc(Nc3ccc(N4CCOC[C@H]4CO)cc3)n2)ccc1O[C@H]1CCN(C(=O)CO)C[C@H]1F
[Q] Given 4 compounds, produce a descending ranking by IC50. Give the labels in the order requested.
[A] 2, 3, 1, 4

P. Cn1cc(C(=O)N2CC[C@H](Oc3ccc(-c4ncnc(Nc5ccc(N6CCN(C7COC7)CC6)cc5)n4)cc3C#N)[C@H](F)C2)nn1
Q. N#Cc1cc(-c2ncnc(Nc3cccc(N4CCN(C5COC5)CC4)c3)n2)ccc1OC1CCOCC1
[Q] Which shows the larger IC50 value: P or Q ? Selection: enter the item's label.
[A] Q

A. Cc1noc(C(=O)N2CC[C@H](Oc3ccc(-c4ncnc(Nc5ccc(N6CCN(C7COC7)CC6)cc5)n4)cc3C#N)[C@H](F)C2)n1
B. N#Cc1cc(-c2ncnc(Nc3ccc(N4CCN(C5COC5)CC4)cc3)n2)ccc1OC1CCOCC1
C. N#Cc1cc(-c2ncnc(Nc3ccc(N4CCN(C5COC5)CC4)cc3)n2)ccc1O[C@H]1CCN(C(=O)c2cnn[nH]2)C[C@H]1F
[Q] Sort entries by IC50 from minimum to maximum value. Give the labels in the order requested.
[A] C, A, B

A. Cn1ccc(Nc2ncnc(-c3ccc(OC4CCOCC4)c(C#N)c3)n2)n1
B. N#Cc1cc(-c2ncnc(Nc3ccc(N4CCN(C5COC5)CC4)c(F)c3)n2)ccc1O[C@H]1CCN(C(=O)c2cnn[nH]2)C[C@H]1F
[Q] # query: argmin of IC50 over A and B Selection: enter the item's label.
[A] B
